Origin of values: patent US7405223B2

testProtocol: clinical
conditionDescription: female, human, plasma, po, 7.5 mg, Cmax, mean (% CV), Day 14, 7.5 mg once daily oral, Black women
endpoint: Cmax (ng/mL)

Clc1ccc2c(c1)CCc1cccnc1C2=C1CCNCC1 [desloratadine]; 6.73

###

testProtocol: clinical
conditionDescription: both, human, plasma, po, 5 mg
endpoint: concentration at 8 day (ng/mL)

Clc1ccc2c(c1)CCc1cccnc1C2=C1CCNCC1; 1.31

###

testProtocol: clinical
conditionDescription: female, human, plasma, po, 7.5 mg, t1/2, mean (% CV), Day 14, 7.5 mg once daily oral, White women
endpoint: half-life (h)

Clc1ccc2c(c1)CCc1cccnc1C2=C1CCNCC1; 29.9
